The reported measurements were obtained from paper PMC6930599.

Target Entity: α-glucosidase (Saccharomyces cerevisiae, Sigma G5003)
Construct: gene MAL12; commercial yeast enzyme preparation (Sigma)
Method Notes: p-nitrophenol release at […] nm, microplate
Type: biochemical
Study Conditions: PNPG (20 μL of 5 mM), PBS pH 7.4, 37 °C, 5 min pre-incubation; error is SE; read-out: α-Glucosidase IC50 (SE) (mg/mL, μM†)
Record form. Attribute: IC50. Fill in for each entry.

Sure, the documented IC50 for C[C@@H]1O[C@H](O[C@@H]2[C@@H](O)[C@H](O)[C@@H](COc3ccc(-c4oc5cc(O)cc(O)c5c(=O)c4O)cc3O)O[C@H]2O)[C@H](O)[C@H](O)[C@H]1O [compound 4] is 9.66 µM

Sure, the documented IC50 for C[C@@H]1O[C@H](OC[C@H]2O[C@@H](Oc3c(-c4ccc(O)c(O)c4)oc4cc(O)cc(O)c4c3=O)[C@H](O[C@H]3O[C@@H](C)[C@H](O)[C@@H](O)[C@H]3O)[C@@H](O)[C@@H]2O)[C@H](O)[C@H](O)[C@H]1O [compound 5] is 16.9 µM

Sure, the documented IC50 for C[C@@H]1O[C@@H](OC[C@H]2O[C@@H](Oc3c(-c4ccc(O)cc4)oc4cc(O)cc(O)c4c3=O)[C@H](O)[C@@H](O)[C@@H]2O)[C@H](O)[C@H](O)[C@H]1O [compound 1, Nicotiflorin] is 159 µM
